# Test system: S1 protein (Severe acute respiratory syndrome coronavirus 2, UniProt P0DTC2)
# Construct: Purified S1 protein was first immobilized on a series S sensor chip protein A; purchased OkayBio
# Protocol text: biochemical
# Type: binding, SARS-CoV-2
Ends that are not written are not given here.

{"columns": ["Sequence input", "Kd, µM"],
 "data": [
  ["ARDIVVPAAMGEIGGWFDP [CDR3 peptide 16]", 24.1],
  ["ARESLYDFDGSGYVDALDV [CDR3 peptide 11]", 0.262]
]}

Every entry's value here was drawn from paper PMC9253215.
